Below, each of the molecules is paired with its reported pKi value.
- targetUnderTest: D(4) dopamine receptor (Homo sapiens)
- Sequence (P21917 whole entry): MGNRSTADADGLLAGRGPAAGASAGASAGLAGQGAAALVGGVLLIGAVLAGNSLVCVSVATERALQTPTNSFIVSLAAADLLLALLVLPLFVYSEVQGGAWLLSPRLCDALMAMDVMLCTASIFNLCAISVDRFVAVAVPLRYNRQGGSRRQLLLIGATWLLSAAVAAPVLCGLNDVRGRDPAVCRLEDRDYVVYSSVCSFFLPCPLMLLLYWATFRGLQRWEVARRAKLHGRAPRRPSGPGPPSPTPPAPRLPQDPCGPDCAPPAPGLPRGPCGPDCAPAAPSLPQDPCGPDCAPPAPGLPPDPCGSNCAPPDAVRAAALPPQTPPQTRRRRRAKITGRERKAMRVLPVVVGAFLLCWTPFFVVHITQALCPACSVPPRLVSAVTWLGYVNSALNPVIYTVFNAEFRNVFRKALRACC
By convention, pKi is the negative base-10 log of a molar concentration.

Clc1ccc2c(c1)N=C(N1CCN(Cc3ccccc3)CC1)c1cccnc1O2	6.68

Okay, next one:
Problem: Look up and state reported pKi for CN1CCN(C2=Nc3ccccc3Oc3ccc(Cl)cc32)CC1 [LOXAPINE]
Result: 8.05

* * *

- targetUnderTest: D(4) dopamine receptor (Homo sapiens)
- experimentalDetails: Displacement of [3H]-YM09151-2 from human cloned dopamine D4 receptor expressed in insect Sf9 cells at 10^-6 M after 60 mins by liquid scintillation counting
observedProperty: inhibition (%)
Numeric answer only, unit % assumed.

Clc1ccc2c(c1)N=C(NCCN1CCCCC1)c1cccnc1O2	2
OCCOCCN1CCN(C2=Nc3cc(Cl)ccc3Oc3ncccc32)CC1	22
CN1CCC(NC2=Nc3cc(Cl)ccc3Oc3ncccc32)CC1	-5
Clc1ccc2c(c1)N=C(NC1CCN(Cc3ccccc3)CC1)c1cccnc1O2	21
OCCN1CCN(C2=Nc3cc(Cl)ccc3Oc3ncccc32)CC1	32
Clc1ccc2c(c1)N=C(N1CCN(c3ccccc3)CC1)c1cccnc1O2	-7

Problem: Look up and state reported inhibition for Clc1ccc2c(c1)N=C(N1CCNCC1)c1cccnc1O2
Result: 28

Problem: Look up and state reported inhibition for Clc1ccc2c(c1)N=C(NCCN1CCOCC1)c1cccnc1O2
Result: -8

* * *

Below, each of the molecules is paired with its reported Ki value.
- targetUnderTest: Alpha-2A adrenergic receptor (Homo sapiens)
- Sequence (P08913 whole entry): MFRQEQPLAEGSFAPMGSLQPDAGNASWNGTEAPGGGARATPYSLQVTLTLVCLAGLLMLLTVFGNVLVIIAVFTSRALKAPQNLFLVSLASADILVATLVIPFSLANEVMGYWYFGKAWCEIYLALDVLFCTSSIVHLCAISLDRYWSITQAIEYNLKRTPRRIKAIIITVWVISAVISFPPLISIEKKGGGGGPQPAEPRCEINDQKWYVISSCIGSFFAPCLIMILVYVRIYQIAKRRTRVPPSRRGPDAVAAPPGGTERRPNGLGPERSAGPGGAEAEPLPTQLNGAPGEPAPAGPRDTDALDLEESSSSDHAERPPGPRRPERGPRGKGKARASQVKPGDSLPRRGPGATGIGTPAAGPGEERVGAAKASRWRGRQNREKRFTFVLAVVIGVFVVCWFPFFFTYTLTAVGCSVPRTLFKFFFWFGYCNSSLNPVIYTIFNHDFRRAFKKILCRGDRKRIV

Clc1ccc2c(c1)N=C(N1CCNCC1)c1cccnc1O2	729 nM
CN1CCN(C2=Nc3cc(Cl)ccc3Oc3ncccc32)CC1.O=C(O)/C=C/C(=O)O	180 nM

Okay, next one:
Problem: Lab note: Alpha-2A adrenergic receptor (Homo sapiens) assay, enter Ki for OCCOCCN1CCN(C2=Nc3cc(Cl)ccc3Oc3ncccc32)CC1 here
Result: 452 nM

All figures here come from ChEMBL document CHEMBL2021876.
